Data origin, for the record: the NIST ThermoML archive (doi:10.1021/je900550v)

Details: 306.15 K; 101.33 kPa; Liquid; Vibrating tube method
Reported mass density by item:
Provide the reading as a plain figure in kg/m3.

Please review the following examples before continuing.
Please indicate mass density recorded for CCCC(=O)[O-].C[NH2+]CCO [N-methyl-2-hydroxyethylammonium butanoate]
1033.88

Please indicate mass density recorded for CCC(=O)[O-].C[NH2+]CCO [2-hydroxy-N-methylethanaminium propionate]
1066.1

Please indicate mass density recorded for CCCCC(=O)[O-].C[NH2+]CCO [2-hydroxy-N-methylethanaminium pentanoate]
1010.86

***
Please indicate mass density recorded for C[NH2+]CCO.O=C[O-] [2-hydroxy-N-methylethanaminium formate]
1123.78

Please indicate mass density recorded for CC(C)C(=O)[O-].C[NH2+]CCO [2-hydroxy-N-methylethanaminium isobutyrate]
1038.23

Please indicate mass density recorded for CC(=O)[O-].C[NH2+]CCO [N-methyl-2-hydroxyethylammonium acetate]
1096.04

====

Settings: 326.9 K; 101.33 kPa; Liquid; Pulse-echo method
measurement label: speed of sound (m/s)
Provide the reading as a plain figure in m/s.

Please review the following examples before continuing.
Please indicate speed of sound recorded for CCCCC(=O)[O-].C[NH2+]CCO [2-hydroxy-N-methylethanaminium pentanoate]
1460.1

Please indicate speed of sound recorded for CC(C)C(=O)[O-].C[NH2+]CCO [2-hydroxy-N-methylethanaminium isobutyrate]
1529.9

Please indicate speed of sound recorded for CCC(=O)[O-].C[NH2+]CCO [2-hydroxy-N-methylethanaminium propionate]
1604.7

***
Please indicate speed of sound recorded for CCCC(=O)[O-].C[NH2+]CCO [N-methyl-2-hydroxyethylammonium butanoate]
1524.5

Please indicate speed of sound recorded for C[NH2+]CCO.O=C[O-] [2-hydroxy-N-methylethanaminium formate]
1759.4

====

Settings: 278.4 K; 101.33 kPa; Liquid; Pulse-echo method
± gives the expanded uncertainty stated by the source.
measurement label: speed of sound
Param answer (str): number followed by unit.

Please indicate speed of sound recorded for C[NH2+]CCO.O=C[O-] [2-hydroxy-N-methylethanaminium formate]
1854.2 ± 2.2 m/s

***
Please indicate speed of sound recorded for CCC(=O)[O-].C[NH2+]CCO [2-hydroxy-N-methylethanaminium propionate]
1751.6 ± 2.2 m/s

Please indicate speed of sound recorded for CC(C)C(=O)[O-].C[NH2+]CCO [2-hydroxy-N-methylethanaminium isobutyrate]
1669.4 ± 2.2 m/s

Please indicate speed of sound recorded for CCCC(=O)[O-].C[NH2+]CCO [N-methyl-2-hydroxyethylammonium butanoate]
1682.5 ± 2.2 m/s

Please indicate speed of sound recorded for CCCCC(=O)[O-].C[NH2+]CCO [2-hydroxy-N-methylethanaminium pentanoate]
1615.6 ± 2.1 m/s

====

Conditions: 290.4 K; 101.33 kPa; Liquid; Vibrating tube method
± gives the expanded uncertainty stated by the source.
measurement label: mass density
Param answer (str): number followed by unit.

Please indicate mass density recorded for CCC(=O)[O-].C[NH2+]CCO [2-hydroxy-N-methylethanaminium propionate]
1076.31 ± 2.2 kg/m3

***
Please indicate mass density recorded for CCCC(=O)[O-].C[NH2+]CCO [N-methyl-2-hydroxyethylammonium butanoate]
1044.5 ± 2.2 kg/m3

Please indicate mass density recorded for CC(C)C(=O)[O-].C[NH2+]CCO [2-hydroxy-N-methylethanaminium isobutyrate]
1048.25 ± 2.2 kg/m3

Please indicate mass density recorded for CC(=O)[O-].C[NH2+]CCO [N-methyl-2-hydroxyethylammonium acetate]
1105.43 ± 2.2 kg/m3

Please indicate mass density recorded for C[NH2+]CCO.O=C[O-] [2-hydroxy-N-methylethanaminium formate]
1132.58 ± 2.2 kg/m3

Please indicate mass density recorded for CCCCC(=O)[O-].C[NH2+]CCO [2-hydroxy-N-methylethanaminium pentanoate]
1021.47 ± 2.2 kg/m3
